- System: Escherichia coli
- Assay text: Inhibition of LuxR-dependent quorum sensing activity in Escherichia coli MT102 harboring pJBA132 assessed as inhibition of OHHL-induced GFP expression at 500 uM measured after 8 hrs by fluorescence assay relative to control
Task for the reader: assign each of the following compounds its reported inhibition.
The reply should contain only the number, in %.

// field: inhibition; key: CC(=O)OC[C@H]1O[C@@H](OC(C)=O)[C@H](NC(=O)Cc2ccc(Cl)cc2)[C@@H](OC(C)=O)[C@@H]1OC(C)=O ; value = 5.2

// field: inhibition; key: CC(=O)N[C@@H]1[C@@H](O)[C@H](O)[C@@H](CO)O[C@H]1O ; value = 36.2

// field: inhibition; key: COc1ccc(CC(=O)N[C@@H]2[C@@H](O)[C@H](O)[C@@H](CO)O[C@H]2O)cc1 ; value = 6.7

// field: inhibition; key: CC(=O)OC[C@H]1O[C@@H](OC(C)=O)[C@H](NC(=O)Cc2ccc(F)cc2)[C@@H](OC(C)=O)[C@@H]1OC(C)=O ; value = 14.1

// field: inhibition; key: O=C(Cc1ccc(C(F)(F)F)cc1)N[C@@H]1[C@@H](O)[C@H](O)[C@@H](CO)O[C@H]1O ; value = 11.4

// field: inhibition; key: CCCCCC(=O)CC(=O)N[C@H]1[C@H](OC(C)=O)O[C@H](COC(C)=O)[C@@H](OC(C)=O)[C@@H]1OC(C)=O ; value = 7.7

// field: inhibition; key: CCCC(=O)N[C@H]1[C@H](OC(C)=O)O[C@H](COC(C)=O)[C@@H](OC(C)=O)[C@@H]1OC(C)=O ; value = 10.1

// field: inhibition; key: CCCC(=O)N[C@@H]1[C@@H](O)[C@H](O)[C@@H](CO)O[C@H]1O ; value = 51.7
